- Test system: THRa homodimer (NR concentration 90 nM)
- experimental_protocol: PBM binding z-score (relative to random genomic background probes); higher = stronger binding; sequences stand for … in GC…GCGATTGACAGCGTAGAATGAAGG

biopolymer_sequence	subject_of_test	PBM binding z-score
CCTGCTAGGTCAATCGTCAGCTAAAGCAGCTCGC	THRa homodimer (NR concentration 90 nM)	0.36
ATCTCTAAGTAAAGATAGTTCAGTGAATGCAAAT	THRa homodimer (NR concentration 90 nM)	-0.328
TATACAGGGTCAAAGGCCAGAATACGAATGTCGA	THRa homodimer (NR concentration 90 nM)	0.697
GCTTTTAGATCAAGGTTAAGAAAGACTAAGCTAA	THRa homodimer (NR concentration 90 nM)	0.0946
